Numbers sourced from patent US20230233569A1.

Target: NRAS Q61K (Homo sapiens, UniProt P01111+P62937, Q61K)
Sequence (P01111 whole entry Q61K): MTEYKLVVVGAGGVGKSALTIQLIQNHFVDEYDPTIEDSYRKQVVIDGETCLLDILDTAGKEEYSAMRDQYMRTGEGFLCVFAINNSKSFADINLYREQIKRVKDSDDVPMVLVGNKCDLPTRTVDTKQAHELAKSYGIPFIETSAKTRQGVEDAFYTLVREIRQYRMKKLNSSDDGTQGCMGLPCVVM
Sequence (P62937 whole entry): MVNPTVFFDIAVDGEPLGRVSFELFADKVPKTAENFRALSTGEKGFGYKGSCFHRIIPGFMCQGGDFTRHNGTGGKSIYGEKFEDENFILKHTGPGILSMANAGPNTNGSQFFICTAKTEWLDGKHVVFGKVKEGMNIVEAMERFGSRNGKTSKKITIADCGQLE
Assay: Disruption of BRAF RBD interaction with Ras (FRET / MOA assay, with Cyclophilin A)
Type: biochemical
Details: NRAS Q61K; read-out: NRAS Q61K FRET data IC50
pIC50: −log10 of the molar value.
pIC50 values for the molecules below.

[[record]]
molecule = "CCn1c(-c2cccnc2[C@H](C)OC)c2c3cc(ccc31)-c1cc(O)cc(c1)C[C@H](NC(=O)[C@H](C(C)C)N(C)C(=O)[C@H]1CCN(C(=O)OC3COC3)C1)C(=O)N1CCC[C@H](N1)C(=O)OCC(C)(C)C2"
result = "6.00 to 7.00"

[[record]]
molecule = "CCn1c(-c2cccnc2[C@H](C)OC)c2c3cc(ccc31)-c1csc(n1)C[C@H](NC(=O)[C@H](C(C)C)N1CCC3(CCN(S(C)(=O)=O)C3)C1=O)C(=O)N1CCC[C@H](N1)C(=O)OCC(C)(C)C2 (mixture of isomers)"
result = "5.00 to 6.00"

[[record]]
molecule = "CCn1c(-c2cccnc2[C@H](C)OC)c2c3cc(ccc31)-c1csc(n1)C[C@H](NC(=O)[C@H](C(C)C)N(C)C(=O)N1CCN3CCOC[C@@H]3C1)C(=O)N1CCC[C@H](N1)C(=O)OCC(C)(C)C2"
result = "6.00 to 7.00"


Query: Form field: reported pIC50 of CCn1c(-c2cccnc2[C@H](C)OC)c2c3cc(ccc31)-c1csc(n1)C[C@H](NC(=O)[C@H](C(C)C)N(C)C(=O)N1CCOC[C@@H]1c1ccccc1)C(=O)N1CCC[C@H](N1)C(=O)OCC(C)(C)C2
Response: 6.00 to 7.00
